- ASSAY_PROTOCOL: Inhibitory concentration of compound against Alpha-glucosidase in Bacillus stearothermophilus
- Design: species or system Geobacillus stearothermophilus
OUTCOME_MEASURE: pIC50
Numbers only, as −log10 of the molar value.

Determine from records and report pIC50 for "O=S(=O)([O-])O[C@@H](CO)[C@H](O)C[S@+]1C[C@@H](O)[C@H](O)[C@@H]1CO"
2.60
